Test system: human SMAD7 mRNA
Experiment: Antisense inhibition of human SMAD7 mRNA expression in Hep3B cells by 3-10-3 cEt gapmers, 10,000 nM, electroporation (Example 2)
Format: cell-based
Details: Hep3B cells, electroporation with 10,000 nM antisense oligonucleotide, approximately 24 hours, RTS5062, percent inhibition of SMAD7 mRNA relative to untreated control cells
Strand notation (5' to 3'): a small letter for the sugar, then the base; units joined by * are phosphorothioate-linked, units joined directly phosphodiester-linked; [ ] holds rarer units or linkages, { } end groups; capitals alone tell only the bases. k = constrained ethyl (cEt); [5mC] = 5-methylcytosine; d = 2'-deoxy (DNA)
measured_parameter: % Inhibition
// return the numeric value with its unit appended

Some solved cases for reference:
- 799830 (antisense kG*kA*kA*dG*dA*dG*dT*dT*dT*dG*d[5mC]*dG*dA*kG*k[5mC]*k[5mC]) [compound 799830]: 55%
- 799294 (antisense k[5mC]*kG*k[5mC]*dG*dG*d[5mC]*d[5mC]*dT*dT*dG*dA*dT*dG*k[5mC]*kT*kG) [compound 799294]: 13%
- 799709 (antisense kT*k[5mC]*kA*dA*dA*d[5mC]*dT*dT*dG*dT*dG*dG*dT*kA*kA*kA) [compound 799709]: 60%
- 799761 (antisense kT*kG*kT*d[5mC]*dA*dT*dT*dA*dG*dA*dA*d[5mC]*dA*kA*kT*kG) [compound 799761]: 35%
- 799827 (antisense kA*kA*k[5mC]*dT*dA*d[5mC]*dA*dA*d[5mC]*d[5mC]*dT*dT*dT*kT*kT*kA) [compound 799827]: 26%

Below: the item to evaluate.
(Q) Query for human SMAD7 mRNA: what % Inhibition does the record show for 799704 (antisense kA*k[5mC]*k[5mC]*dA*dA*dT*dG*dG*d[5mC]*dA*dT*dT*dG*kA*kA*kT) [compound 799704] ?
(A) 12%

---

Test system: human SMAD7 mRNA
Assay: Antisense inhibition of human SMAD7 mRNA expression in Hep3B cells by 3-10-3 cEt gapmers, 10,000 nM, electroporation (Example 2)
Type: cell-based
Conditions: Hep3B cells, electroporation with 10,000 nM antisense oligonucleotide, approximately 24 hours, primer probe set RTS5062, relative to untreated control cells
Strand notation (5' to 3'): a small letter for the sugar, then the base; units joined by * are phosphorothioate-linked, units joined directly phosphodiester-linked; [ ] holds rarer units or linkages, { } end groups; capitals alone tell only the bases. k = constrained ethyl (cEt); [5mC] = 5-methylcytosine; d = 2'-deoxy (DNA)
measured_parameter: % Inhibition (%)
Kindly provide the numeric value in % only, without the unit symbol.

Example substances with recorded % Inhibition:
• 799073 (antisense k[5mC]*kG*k[5mC]*dT*dA*d[5mC]*dA*dA*dT*dG*dG*d[5mC]*dA*kG*kG*kG) [compound 799073] = 34
• 798980 (antisense kA*k[5mC]*kA*d[5mC]*dT*dG*dT*dG*dT*dT*dT*dG*dG*kT*kG*kG) [compound 798980] = 50

Pending substance:
(Q) Please report the recorded % Inhibition for 798936 (antisense kG*k[5mC]*kA*dT*dG*dA*dA*dA*dA*dG*d[5mC]*dA*dA*kG*k[5mC]*kA) [compound 798936] .
(A) 14

---

Test system: human SMAD7 mRNA
Test: Antisense inhibition of human SMAD7 mRNA expression in Hep3B cells by 3-10-3 cEt gapmers, 10,000 nM, electroporation (Example 2)
Format: cell-based
Conditions: Hep3B cells, electroporation, 10,000 nM antisense oligonucleotide, approximately 24 hours, RTS5062, relative to untreated control cells
Strand notation (5' to 3'): a small letter for the sugar, then the base; units joined by * are phosphorothioate-linked, units joined directly phosphodiester-linked; [ ] holds rarer units or linkages, { } end groups; capitals alone tell only the bases. k = constrained ethyl (cEt); [5mC] = 5-methylcytosine; d = 2'-deoxy (DNA)
measured_parameter: % inhibition of SMAD7 mRNA expression
Put your answer as a value accompanied by its unit after it.

- 799537 (kG*kG*kG*d[5mC]*dA*d[5mC]*d[5mC]*dA*d[5mC]*dA*dA*dT*dG*kT*k[5mC]*kA; antisense) [compound 799537]: 3%
- 799731 (antisense k[5mC]*kT*kT*dT*d[5mC]*dT*dT*dG*dG*dT*dG*dT*dG*kT*kT*kA) [compound 799731]: 37%

(Q) # lookup: % inhibition of SMAD7 mRNA expression of 772813 (kA*kA*kG*dG*dG*d[5mC]*dG*d[5mC]*dA*dG*dG*dA*dA*kA*kG*kG; antisense) [compound 772813]
(A) 43%

(Q) Similarly, 799819 (antisense k[5mC]*k[5mC]*k[5mC]*d[5mC]*dA*d[5mC]*dT*dG*dA*dG*d[5mC]*dA*dG*kG*kA*kG) [compound 799819] ?
(A) 26%

(Q) Request: 799734 (antisense kT*k[5mC]*k[5mC]*d[5mC]*dA*dG*dG*dT*dG*dA*dA*d[5mC]*d[5mC]*k[5mC]*kA*k[5mC]) [compound 799734]
(A) 45%

(Q) Please give the result for 799562 (kG*kA*kA*dG*dA*dG*dG*dA*dG*dA*dG*d[5mC]*d[5mC]*kG*kG*kG; antisense) [compound 799562] too.
(A) 39%

---

System: human SMAD7 mRNA
Assay: Dose-dependent inhibition of human SMAD7 mRNA expression in Hep3B cells (Example 3, Study 1 and 2)
Type: cell-based
Conditions: 2220 nM, electroporation, approximately 16 hours, Study 2
Description: The antisense oligonucleotides were tested in a series of experiments that had similar culture conditions as described below. Cells were plated at a density of 20,000 cells per well and transfected using electroporation with 0.31 μM, 1.25 μM, 5.00 μM, or 20.00 μM concentrations of antisense oligonucleotide, as specified in the Tables below. […] After a treatment period of approximately 16 hours, RNA was isolated from the cells and SMAD7 mRNA levels were measured by quantitative real-time PCR. […]
Strand notation (5' to 3'): a small letter for the sugar, then the base; units joined by * are phosphorothioate-linked, units joined directly phosphodiester-linked; [ ] holds rarer units or linkages, { } end groups; capitals alone tell only the bases. k = constrained ethyl (cEt); [5mC] = 5-methylcytosine; d = 2'-deoxy (DNA)
Reported % inhibition of SMAD7 mRNA expression values for a set of substances
Give a bare numeral; the unit % is implied.

Please review the entries below; each comes with its answer.
• 799712 (antisense kA*kT*kA*dG*dA*dT*dT*dA*dT*d[5mC]*d[5mC]*dA*dA*kG*kT*kA) [compound 799712] = 45
• 799564 (k[5mC]*kA*kG*dA*dT*dA*dA*d[5mC]*dA*dG*dA*dG*dT*kA*kT*kA; antisense) [compound 799564] = 41

// next entry
(Q) For the substance shown here, 830142 (antisense kT*kG*kT*dG*d[5mC]*dA*d[5mC]*d[5mC]*dA*dG*dG*dT*dG*kA*kG*k[5mC]) [compound 830142] , give the reported % inhibition of SMAD7 mRNA expression.
(A) 37

---

Assay: Body and organ weights after subcutaneous administration in beagle dogs (Example 8)
Type: in vivo
Conditions: 30 mg/kg subcutaneous days 1, 3, 5, 8, 15, 22, 29, end of study
measured_parameter: Body weight (g)
The reply should be a number in g, with the unit left off.

Worked set:
- 830025 (antisense TTTGTAAATCGAAAGC; 3-10-3 cEt gapmer, further chemistry not given here) [compound 830025]: 7403
- 830037 (antisense CTATTGGCTGATCTGG; 3-10-3 cEt gapmer, further chemistry not given here) [compound 830037]: 6437

Switching to the query record.
(Q) Field request: Body weight | item: 790615 (CCAATGAGAATGCTTC; 3-10-3 cEt gapmer, further chemistry not given here) [compound 790615]
(A) 7372

---

System: human SMAD7 mRNA
Assay: Antisense inhibition of human SMAD7 mRNA expression in Hep3B cells by 3-10-3 cEt gapmers, 10,000 nM, electroporation (Example 2)
Format: cell-based
Conditions: Hep3B cells, 10,000 nM antisense oligonucleotide, electroporation, approximately 24 hours, RT-PCR primer probe set RTS5062, relative to untreated control cells
Strand notation (5' to 3'): a small letter for the sugar, then the base; units joined by * are phosphorothioate-linked, units joined directly phosphodiester-linked; [ ] holds rarer units or linkages, { } end groups; capitals alone tell only the bases. k = constrained ethyl (cEt); [5mC] = 5-methylcytosine; d = 2'-deoxy (DNA)
measured_parameter: % Inhibition (%)
Please state the figure in %; there is no need to write the unit.

• 800052 (antisense k[5mC]*k[5mC]*k[5mC]*dT*d[5mC]*dT*dT*d[5mC]*d[5mC]*dG*dG*dG*dA*kG*kG*k[5mC]) [compound 800052] = 0
• 800093 (antisense kT*kT*kG*dA*dA*dG*dG*d[5mC]*d[5mC]*dA*dG*d[5mC]*dT*k[5mC]*k[5mC]*kT) [compound 800093] = 48

Please look at the following substance next.
(Q) Find the recorded % Inhibition belonging to 799891 (antisense kA*kT*k[5mC]*dA*dT*dT*dA*dA*dG*d[5mC]*d[5mC]*dA*dA*kT*kT*kT) [compound 799891] and report it.
(A) 0
